procedure.text: Plasma concentration in CD1 mouse at 5 mg/kg, ip administered as single dose at 16 hrs
Assay type: ADME, organism-based
Set-up: dose 5 mg/kg, route intraperitoneal
run.parameters: CD1, mouse, plasma

[
  {
    "smiles.repr": "C=C/C=C\\[C@H](C)[C@@H]1OC(=O)/C=C\\C=C\\[C@@H](C)[C@@H](O)C[C@H](O)/C=C\\[C@H](C)[C@H](O)[C@@H](C)C[C@@H](C)CC[C@@H](O)[C@@H]1C",
    "unit.of.measure": "nM",
    "concentration at 16 h": 77
  }
]

* * *

procedure.text: AUC (0.25 to 4 hrs) in CD1 mouse brain at 5 mg/kg, ip administered as single dose at 4 hrs
Assay type: ADME, organism-based
Parameters: time upper 4 hr, time lower 0.25 hr, dose 5 mg/kg, route intraperitoneal
assay.metric: AUC(0-t) at 4 h

[
  {
    "molecule": "C=C/C=C\\[C@H](C)[C@H](OC(N)=O)[C@@H](C)[C@H](O)[C@@H](C)C/C(C)=C\\[C@H](C)[C@@H](O)[C@@H](C)/C=C\\[C@@H](O)C[C@@H]1OC(=O)[C@H](C)[C@@H](O)[C@H]1C [DISERMOLIDE]",
    "recorded.result": "112 nM·h"
  }
]

* * *

procedure.text: AUC (0.25 to 4 hrs) in CD1 mouse plasma at 5 mg/kg, ip administered as single dose at 4 hrs
Format: ADME, organism-based
Parameters: time 0.25-4 hr, dose 5 mg/kg, route intraperitoneal
# Lookup of reported AUC(0-t) at 4 h keyed by entry
assay.metric: AUC(0-t) at 4 h (µM·h)

[
  {
    "compound": "C=C/C=C\\[C@H](C)[C@H](OC(N)=O)[C@@H](C)[C@H](O)[C@@H](C)C/C(C)=C\\[C@H](C)[C@@H](O)[C@@H](C)/C=C\\[C@@H](O)C[C@@H]1OC(=O)[C@H](C)[C@@H](O)[C@H]1C [DISERMOLIDE]",
    "assay.metric": "AUC(0-t) at 4 h",
    "recorded.result": 0.439
  },
  {
    "compound": "C=C/C=C\\[C@H](C)[C@@H]1OC(=O)/C=C\\C=C\\[C@@H](C)[C@@H](O)C[C@H](O)/C=C\\[C@H](C)[C@H](O)[C@@H](C)C[C@@H](C)CC[C@@H](O)[C@@H]1C",
    "assay.metric": "AUC(0-t) at 4 h",
    "recorded.result": 5.54
  }
]

* * *

procedure.text: AUC (0.5 to 16 hrs) in CD1 mouse brain at 5 mg/kg, ip administered as single dose at 4 hrs
Type: ADME, organism-based
Parameters: time 0.5-16 hr, dose 5 mg/kg, route intraperitoneal

[
  {
    "smiles.repr": "C=C/C=C\\[C@H](C)[C@@H]1OC(=O)/C=C\\C=C\\[C@@H](C)[C@@H](O)C[C@H](O)/C=C\\[C@H](C)[C@H](O)[C@@H](C)C[C@@H](C)CC[C@@H](O)[C@@H]1C",
    "AUC(0-t)": "6.25 µM·h"
  }
]

The measured values listed here are drawn from ChEMBL document CHEMBL2429718.
